test: growth inhibition of WT strain, primary screen, mitochondrial fusion inhibitor project, WT and mutant strains, chemical genetic (AID 1362); conditions: mitochondrial fusion phenotypic screen, mutant strain inhibition; at 10 µM
Among all 190,000 compounds or so, about 4,000 (2.1%) were called active. The list comes from a sample in which actives are over-represented; it also holds close analogues and randomly drawn compounds.

>  <MOLECULE>
CCOC(=O)C1(C)NC(c2ccco2)C2C(=O)N(c3ccccc3)C(=O)C21 (stereo not given)

>  <inhibition>
-16.9%

$$$$
>  <MOLECULE>
CCc1ccccc1NC(=O)/C(=C/c1ccccc1)c1ccccc1

>  <inhibition>
9.35%

$$$$
>  <MOLECULE>
O=C(/C=C/c1ccccc1)N/C(=C/c1ccccc1)C(=O)Nc1ccccc1O

>  <inhibition>
-0.03%

$$$$
>  <MOLECULE>
Cc1ccc(C2C3=C(Nc4[nH]n(-c5ccccc5)c(=O)c42)c2ccccc2C3=O)cc1 (stereo not given)

>  <inhibition>
-6.48%

$$$$
>  <MOLECULE>
Cc1nn(-c2ccccn2)c2c1C(c1ccncc1)C1=C(CC(C)(C)CC1=O)N2 (stereo not given)

>  <inhibition>
-14.9%

$$$$
